Tested on: Enterobacter asburiae PEG-13-74-62
Assay: MHK against further strains (Table 2)
Assay type: cell-based
Settings: Nr. 19 Enterobacter asburiae PEG-13-74-62, clinical isolate; KBE/ml 8.20E+05
measured_attribute: MHK (mg/L)

compound	target	recorded_result
COc1c(NC(=O)c2ccc(NC(=O)c3ccc(NC(=O)[C@H](CN(C)C)NC(=O)c4ccc(NC(=O)/C(C)=C/c5ccc(O)cc5)cc4)cc3)c(OC)c2O)ccc(C(=O)O)c1O [Compound 2, L-DMDAP-Albicidin]	Enterobacter asburiae PEG-13-74-62	32
COc1c(NC(=O)c2ccc(NC(=O)c3ccc(NC(=O)[C@H](Cc4c[nH]cn4)NC(=O)c4ccc(NC(=O)/C(C)=C/c5ccc(O)cc5)cc4)cc3)c(OC)c2O)ccc(C(=O)O)c1O [Compound 1, L-His-albicidin]	Enterobacter asburiae PEG-13-74-62	32
COc1c(NC(=O)c2ccc(NC(=O)c3ccc(NC(=O)C(Cc4c[nH]nn4)NC(=O)c4ccc(NC(=O)/C(C)=C/c5ccc(O)cc5)cc4)cc3)c(OC)c2O)ccc(C(=O)O)c1O [Compound 3, L-Azahis-Albicidin]	Enterobacter asburiae PEG-13-74-62	32
COc1c(NC(=O)c2ccc(NC(=O)c3ccc(NC(=O)[C@@H](CN(C)C)NC(=O)c4ccc(NC(=O)/C(C)=C/c5ccc(O)cc5)cc4)cc3)c(OC)c2O)ccc(C(=O)O)c1O [Compound 16, D-DMDAP-Albicidin]	Enterobacter asburiae PEG-13-74-62	32
